molecular target: SARS-CoV-2 Omicron (B.1.1.529) RBD (SARS-CoV-2 Omicron B.1.1.529 (BA.1), strain)
MEASURED_METRIC: binding result

BD55-3152 (antibody, V domains shown) VH: QVQLVQSGAEVKKPGASVIVSCKASGYRFISHYIHWVRQAPGQGLEWMGKIDPSGRGTTYAQKLQGRVSVTRDTSTSSVYMALSGLRSDDTAVYYCARDRFPLSDPYVWGSPLGGLDVWGQGTTVIVSS VL: SYDLTQPPSVSVSPGQTARITCSGDALPSQYVYWYQQRPGQAPVLVMYKDSERPPGIPERFSGSTSGTTATLTITGVQAEDEADYYCQSADASTTYHVFGGGTKVTVV	binds

Measured values drawn from paper PMC8866119 for this set.
